Test: Toxicity in the mouse (LD50)
Conditions: in vivo, ip, intraperitoneal administration
Counter-ions that a name gives are not always drawn.
READOUT KIND: LD50 (mg/kg)
Write it as a number; the unit mg/kg goes unstated.

For record CC1=C(C(=O)O)N2C(=O)[C@@H](NC(=O)[C@H](NCO)c3ccccc3)[C@H]2SC1 [Example 1, Lysine salt of 2-N-methylol-cephalexin] the listed LD50 is 3100

* * *

Assay: Toxicity in the rat (LD50)
Conditions: in vivo, po, per os
Where a name gives a salt, the structure may show the parent alone.
READOUT KIND: LD50

// LD50 value for CC1=C(C(=O)O)N2C(=O)[C@@H](NC(=O)[C@H](NCO)c3ccccc3)[C@H]2SC1 [Example 1, Lysine salt of 2-N-methylol-cephalexin] : > 4000 mg/kg

* * *

Assay: clinical
Settings: human, in vivo, po
Where a name gives a salt, the structure may show the parent alone.
READOUT KIND: dose excreted at 24 h

dose excreted at 24 h in this record for CC1=C(C(=O)O)N2C(=O)[C@@H](NC(=O)[C@H](NCO)c3ccccc3)[C@H]2SC1 [Example 1, Lysine salt of 2-N-methylol-cephalexin] : 87%
